Test: recombinant UMI read abundance after kanamycin selection (control-corrected) (log10(CPM+1)); higher = more efficient recombination; extreme values may be limits of the assay; sequences stand for … in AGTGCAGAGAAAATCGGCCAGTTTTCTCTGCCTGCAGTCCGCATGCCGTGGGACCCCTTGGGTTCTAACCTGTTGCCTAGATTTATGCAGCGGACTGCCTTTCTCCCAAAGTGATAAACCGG…AGGTTGGTTTCACT; site = the 11-nt donor;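 also: IS621 bridge recombinase in Escherichia coli cells against a fixed T5 target plasmid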
measurement name: recombinant UMI read abundance (log10)
Answers are plain numbers.

1. CGTCAGACATGGACCGGTTTTCCCGGTAATCCGTATTTGAG (site CGTGAGACTCT) = 0.016
2. GCCACGGCATGGACCGGTTTTCCCGGTAATCCGTATTTGTA (site GCCACGGCTTA) = 1.62
3. GGTTCCGCATGGACCGGTTTTCCCGGTAATCCGTATTTGCG (site GGTTCCGCTCG) = 0
4. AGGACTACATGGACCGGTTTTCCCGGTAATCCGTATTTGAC (site AGGACTACTGT) = 2.29

**Query** Answer with the recorded recombinant UMI read abundance (log10) of GGGAATCCATGGACCGGTTTTCCCGGTAATCCGTATTTGAA (site GGGAATCCTTT) only.
**Result** 0.808
